Taken from ChEMBL document CHEMBL1126591.

# System: Histamine H1 receptor (Cavia porcellus)
# Sequence (P31389 whole entry): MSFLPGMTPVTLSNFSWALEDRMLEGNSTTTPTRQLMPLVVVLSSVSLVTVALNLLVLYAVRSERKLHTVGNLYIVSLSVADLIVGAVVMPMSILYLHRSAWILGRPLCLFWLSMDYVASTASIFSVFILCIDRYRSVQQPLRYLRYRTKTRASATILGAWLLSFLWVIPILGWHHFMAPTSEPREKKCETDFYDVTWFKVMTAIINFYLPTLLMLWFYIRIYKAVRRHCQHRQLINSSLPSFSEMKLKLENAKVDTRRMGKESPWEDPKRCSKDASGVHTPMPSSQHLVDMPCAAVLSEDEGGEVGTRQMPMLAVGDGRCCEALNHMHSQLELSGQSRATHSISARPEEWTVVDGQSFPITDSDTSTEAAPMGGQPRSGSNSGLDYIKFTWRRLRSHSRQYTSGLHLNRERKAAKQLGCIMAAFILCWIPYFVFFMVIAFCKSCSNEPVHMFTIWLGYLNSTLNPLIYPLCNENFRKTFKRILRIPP
pKi: −log10 of the molar value.
Listed compounds paired with reported pKi

[
  {
    "Compound": "CN(C)CCSC1c2ccccc2COc2ccc(C(=O)O)cc21 (stereo not given)",
    "pKi": 8.05
  },
  {
    "Compound": "O=C(O)c1ccc2c(c1)C(SCCN1CCc3ccccc3C1)c1ccccc1CO2 (stereo not given)",
    "pKi": 8.16
  },
  {
    "Compound": "O=C(O)c1ccc2c(c1)C(SCCN1CCN(c3ccccc3)CC1)c1ccccc1CO2 (stereo not given)",
    "pKi": 7.33
  },
  {
    "Compound": "O=C(O)CCc1ccc2c(c1)C(SCCN1CCC(Cc3ccccc3)CC1)c1ccccc1CO2 (stereo not given)",
    "pKi": 7.92
  },
  {
    "Compound": "O=C(O)c1ccc2c(c1)C(SCCN1CCOCC1)c1ccccc1CO2 (stereo not given)",
    "pKi": 7.38
  },
  {
    "Compound": "O=C(O)c1ccc2c(c1)C(SCCN1CCN(c3ccc(F)cc3)CC1)c1ccccc1CO2 (stereo not given)",
    "pKi": 7.39
  },
  {
    "Compound": "O=C(O)c1ccc2c(c1)C(SCCN1CCC(Cc3ccccc3)CC1)c1ccccc1CO2 (stereo in doubt; (+)12)",
    "pKi": 8.00
  },
  {
    "Compound": "O=C(O)Cc1ccc2c(c1)C(SCCN1CCC(Cc3ccccc3)CC1)c1ccccc1CO2 (stereo not given)",
    "pKi": 8.00
  },
  {
    "Compound": "O=C(O)c1ccc2c(c1)C(SCCN1CCC(c3ccccc3)CC1)c1ccccc1CO2 (stereo not given)",
    "pKi": 7.70
  },
  {
    "Compound": "O=C(O)c1ccc2c(c1)C(SCCN1CCC(Cc3ccccc3)CC1)c1ccccc1CO2 (stereo in doubt; (-)12)",
    "pKi": 6.13
  },
  {
    "Compound": "O=C(O)c1ccc2c(c1)C(SCCN1CCC(n3c(O)nc4ccccc43)CC1)c1ccccc1CO2 (stereo not given)",
    "pKi": 6.30
  },
  {
    "Compound": "O=C(O)c1ccc2c(c1)C(SCCN1CCN(Cc3ccccc3)CC1)c1ccccc1CO2 (stereo not given)",
    "pKi": 7.85
  },
  {
    "Compound": "O=C(O)c1ccc2c(c1)C(SCCN1CCC(Cc3ccccc3)CC1)c1ccccc1CO2 (racemic)",
    "pKi": 7.74
  },
  {
    "Compound": "CC(C)(C(=O)O)c1ccc2c(c1)C(SCCN1CCC(Cc3ccccc3)CC1)c1ccccc1CO2 (stereo not given)",
    "pKi": 7.77
  },
  {
    "Compound": "O=C(O)Cc1ccc2c(c1)/C(=C/CN1CCC(Cc3ccccc3)CC1)c1ccccc1CO2",
    "pKi": 7.70
  }
]
